- test.method.notes: Metabolic stability in human liver microsomes assessed as clearance
- Assay type: ADME, Microsome
- stated.conditions: read-out: CLH
endpoint.label: CLint scaled

# record.smiles, CLint scaled
rows = [
    ("C[C@@H](NC(=O)c1cnc(-c2ccc(S(C)(=O)=O)cc2)s1)c1cn(-c2cc(C(F)(F)F)ccn2)nn1", "< 12 mL/min/kg"),
    ("C[C@H](NC(=O)c1cnc(-c2ccc(S(C)(=O)=O)cc2)s1)c1cn(-c2cc(C(F)(F)F)ccn2)nn1", "< 12 mL/min/kg"),
    ("CS(=O)(=O)c1ccc(-c2ncc(C(=O)NCc3cn(-c4cc(NC5CC(F)(F)C5)ccn4)nn3)s2)cc1", "< 12 mL/min/kg"),
    ("CS(=O)(=O)c1ccc(-c2ncc(C(=O)NCc3cn(-c4cc(C(F)(F)F)ccn4)nn3)s2)cc1", "< 12 mL/min/kg"),
    ("C[C@@H](NC(=O)c1csc(-c2ccc(S(C)(=O)=O)cc2)n1)c1cn(-c2cc(C(F)(F)F)ccn2)nn1", "< 12 mL/min/kg"),
]

Q: Dear colleague, I am looking for the recorded CLint scaled of the following compound: `CS(=O)(=O)c1ccc(-c2nc(C(=O)NCc3cn(-c4cc(N5CCC(F)(F)CC5)ccn4)nn3)cs2)cc1`
Ans: 54.2 mL/min/kg

Q: Now consider `C[C@H](NC(=O)c1csc(-c2ccc(S(C)(=O)=O)cc2)n1)c1cn(-c2cc(C(F)(F)F)ccn2)nn1` and answer again.
Ans: < 12 mL/min/kg

Q: Now consider `CS(=O)(=O)c1ccc(-c2nc(C(=O)NCc3cn(-c4cc(C(F)(F)F)ccn4)nn3)cs2)cc1` and answer again.
Ans: < 12 mL/min/kg

Q: Now consider `CS(=O)(=O)c1ccc(-c2ncc(C(=O)NCc3cn(-c4cc(N5CCC(F)(F)CC5)ccn4)nn3)s2)cc1` and answer again.
Ans: 21.8 mL/min/kg

Q: Now consider `CS(=O)(=O)c1ccc(-c2nc(C(=O)NCc3cn(-c4cc(NC5CC(F)(F)C5)ccn4)nn3)cs2)cc1` and answer again.
Ans: 13.8 mL/min/kg

###

- experimental.target: CYP2C9 (Homo sapiens)
- Sequence (P11712 whole entry): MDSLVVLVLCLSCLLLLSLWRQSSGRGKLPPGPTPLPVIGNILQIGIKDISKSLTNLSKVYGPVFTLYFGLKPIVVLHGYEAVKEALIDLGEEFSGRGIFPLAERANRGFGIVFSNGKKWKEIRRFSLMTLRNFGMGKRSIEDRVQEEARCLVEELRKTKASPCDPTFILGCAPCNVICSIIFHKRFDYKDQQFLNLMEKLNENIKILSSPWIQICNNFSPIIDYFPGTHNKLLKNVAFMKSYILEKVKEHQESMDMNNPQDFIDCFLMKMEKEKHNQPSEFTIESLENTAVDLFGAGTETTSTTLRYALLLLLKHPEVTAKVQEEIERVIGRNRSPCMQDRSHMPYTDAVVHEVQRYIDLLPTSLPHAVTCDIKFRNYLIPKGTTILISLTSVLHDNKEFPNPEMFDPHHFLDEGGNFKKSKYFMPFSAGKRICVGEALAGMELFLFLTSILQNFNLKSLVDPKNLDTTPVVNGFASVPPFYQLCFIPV
- test.method.notes: Inhibition of CYP2C9 in human liver microsomes assessed as compound remaining at 1 uM measured after 2 hrs incubation by LC-MS/MS analysis
- Format: ADME, Microsome
- stated.conditions: read-out: Activity
endpoint.label: remaining at 2 h, 1 µM (%)

# record.smiles, experimental.value
rows = [
    ("C[C@@H](NC(=O)c1cnc(-c2ccc(S(C)(=O)=O)cc2)s1)c1cn(-c2cc(C(F)(F)F)ccn2)nn1", 84.2),
    ("C[C@H](NC(=O)c1cnc(-c2ccc(S(C)(=O)=O)cc2)s1)c1cn(-c2cc(C(F)(F)F)ccn2)nn1", 100),
]

###

- test.method.notes: Metabolic stability in mouse liver microsomes assessed as clearance
- Format: ADME, Microsome
- stated.conditions: read-out: CLH
endpoint.label: CLint scaled

# record.smiles, experimental.value
rows = [
    ("C[C@@H](NC(=O)c1cnc(-c2ccc(S(C)(=O)=O)cc2)s1)c1cn(-c2cc(C(F)(F)F)ccn2)nn1", "< 12 mL/min/kg"),
    ("C[C@@H](NC(=O)c1csc(-c2ccc(S(C)(=O)=O)cc2)n1)c1cn(-c2cc(C(F)(F)F)ccn2)nn1", "< 12 mL/min/kg"),
]

Q: Dear colleague, I am looking for the recorded CLint scaled of the following molecule: `C[C@H](NC(=O)c1csc(-c2ccc(S(C)(=O)=O)cc2)n1)c1cn(-c2cc(C(F)(F)F)ccn2)nn1`
Ans: < 12 mL/min/kg

###

- experimental.target: P2X purinoceptor 7 (Mus musculus)
- test.method.notes: Antagonist activity against mouse P2X7 receptor expressed in ATP-stimulated HEK293 cells assessed as influx of PI at 1 uM by fluorescence dye uptake assay relative to control
- Type: cell-based
- Set-up: scale not given: the % may be the effect or the level left
The source made the active and inactive calls. The rule behind the calls is not given here.
endpoint.label: Activity

# record.smiles, Activity
measured = [
    ("CS(=O)(=O)c1ccc(-c2ncc(C(=O)NCc3cn(-c4cc(-c5cccc(C(F)(F)F)c5)ccn4)nn3)s2)cc1", "27.4%"),
    ("CS(=O)(=O)c1ccc(-c2nc(C(=O)NCc3cn(-c4cncc(Br)c4)nn3)cs2)cc1", "23.9%"),
    ("CS(=O)(=O)c1ccc(-c2ncc(C(=O)NCc3cn(-c4ccc(F)cn4)nn3)s2)cc1", "25.7%"),
    ("Cc1ccnc(-n2cc(CNC(=O)c3cnc(-c4ccc(S(C)(=O)=O)cc4)s3)nn2)c1", "44.4%"),
    ("COc1ccnc(-n2cc(CNC(=O)c3cnc(-c4ccc(S(C)(=O)=O)cc4)s3)nn2)c1", "9.9%"),
]

Q: Dear colleague, I am looking for the recorded Activity of the following compound: `CS(=O)(=O)c1ccc(-c2ncc(C(=O)NCc3cn(-c4ccc(Cl)cn4)nn3)s2)cc1`
Ans: 28.1%

Q: Now consider `CS(=O)(=O)c1ccc(-c2ncc(C(=O)NCc3cn(-c4cc(-c5ccc(C(F)(F)F)s5)ccn4)nn3)s2)cc1` and answer again.
Ans: 35.6%

Q: Now consider `CS(=O)(=O)c1ccc(-c2nc(C(=O)NCc3cn(-c4cc(Nc5cnn(C(F)F)c5)ccn4)nn3)cs2)cc1` and answer again.
Ans: 11.4%

Q: Now consider `CS(=O)(=O)c1ccc(-c2nc(C(=O)NCc3cn(-c4cccc(Br)n4)nn3)cs2)cc1` and answer again.
Ans: 50%

Q: Now consider `CS(=O)(=O)c1ccc(-c2nc(C(=O)NCc3cn(-c4cc(-c5ccc(C(F)(F)F)s5)ccn4)nn3)cs2)cc1` and answer again.
Ans: 28.7%

Q: Now consider `CS(=O)(=O)c1ccc(-c2ncc(C(=O)NCc3cn(-c4cc(-c5cncc(C(F)(F)F)c5)ccn4)nn3)s2)cc1` and answer again.
Ans: 49.6%

Q: Now consider `CS(=O)(=O)c1ccc(-c2nc(C(=O)NCc3cn(-c4ccc(Cl)cn4)nn3)cs2)cc1` and answer again.
Ans: inactive

Q: Now consider `CS(=O)(=O)c1ccc(-c2nc(C(=O)NCc3cn(-c4ccc(Br)nc4)nn3)cs2)cc1` and answer again.
Ans: 10%

Q: Now consider `CS(=O)(=O)c1ccc(-c2ncc(C(=O)NCc3cn(-c4ccncc4Br)nn3)s2)cc1` and answer again.
Ans: 41%

Q: Now consider `Clc1cccc(-n2nnnc2NCc2ccccc2Oc2ccccn2)c1Cl` and answer again.
Ans: 96.3%

Q: Now consider `CS(=O)(=O)c1ccc(-c2ncc(C(=O)NCc3cn(-c4cncc(Br)c4)nn3)s2)cc1` and answer again.
Ans: 36.8%

Q: Now consider `Cc1ccnc(-n2cc(CNC(=O)c3csc(-c4ccc(S(C)(=O)=O)cc4)n3)nn2)c1` and answer again.
Ans: 5.1%

Q: Now consider `CS(=O)(=O)c1ccc(-c2ncc(C(=O)NCc3cn(-c4ccc(Br)nc4)nn3)s2)cc1` and answer again.
Ans: 42.8%

Q: Now consider `CS(=O)(=O)c1ccc(-c2nc(C(=O)NCc3cn(-c4cc(-c5ccc(C(F)(F)F)cc5)ccn4)nn3)cs2)cc1` and answer again.
Ans: 37%

Q: Now consider `CS(=O)(=O)c1ccc(-c2ncc(C(=O)NCc3cn(-c4cccc(Br)n4)nn3)s2)cc1` and answer again.
Ans: 45%

Q: Now consider `CS(=O)(=O)c1ccc(-c2ncc(C(=O)NCc3cn(-c4cc(-c5ccc(C(F)(F)F)cc5)ccn4)nn3)s2)cc1` and answer again.
Ans: inactive

Q: Now consider `CS(=O)(=O)c1ccc(-c2nc(C(=O)NCc3cn(-c4ccnc(Br)c4)nn3)cs2)cc1` and answer again.
Ans: inactive
